Test system: gel-filtered human platelets
Assay: Inhibition of ADP-stimulated platelet aggregation (IC50 Plaggin)
Format: cell-based
Settings: ADP-initiated (10 mM ADP) aggregation of gel-filtered human platelets, fibrinogen 100 ug/ml, Ca2+ 1 mM, 37° C.
propertyMeasured: IC50 (µM)
# output: bare number, implied unit µM

Ask | What value of IC50 has been recorded for this entry: CCCCS(=O)(=O)N[C@@H](CCNC(=O)[C@@H]1C[C@H]1C(=O)NCCC1CCNCC1)C(=O)O
Reply | 3.5

Ask | What value of IC50 has been recorded for this entry: CCCCS(=O)(=O)N[C@@H](CCNC(=O)[C@H]1C[C@@H]1C(=O)NCCC1CCNCC1)C(=O)O
Reply | 17

Ask | What value of IC50 has been recorded for this entry: C[C@H](CC(=O)O)NC(=O)[C@@H]1C[C@H]1C(=O)NCCC1CCNCC1
Reply | 17

Ask | What value of IC50 has been recorded for this entry: CCCCS(=O)(=O)N[C@@H](CNC(=O)[C@@H]1C[C@H]1C(=O)NCCC1CCNCC1)C(=O)O
Reply | 0.077

Ask | What value of IC50 has been recorded for this entry: CCCCS(=O)(=O)N[C@@H](CNC(=O)C1CC1C(=O)NCCC1CCNCC1)C(=O)O (some centres unmarked)
Reply | 0.21
